Target: T1, ParB 65-139 (RHH domain) (Leifsonia xyli subsp. cynodontis …, UniProt Q6EEF9 65-139)
T1 sequence: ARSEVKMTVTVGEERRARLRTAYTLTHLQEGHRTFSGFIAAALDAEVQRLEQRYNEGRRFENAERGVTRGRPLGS
Assay: ITC
Examples of binders with documented Kd follow.
readout_label: Kd (nM)

>  <binder>
R2-18 (dsDNA) DNA 1: AGTAAAGTAGGAATAGGT DNA 2: ACCTATTCCTACTTTACT

>  <value_units>
nM

>  <test_value>
380

$$$$
>  <binder>
R3-18-6T (dsDNA) DNA 1: GGAATTGGTGGAAAAGCC DNA 2: GGCTTTTCCACCAATTCC

>  <value_units>
nM

>  <test_value>
37

$$$$
>  <binder>
R3-18-15T (dsDNA) DNA 1: GGAATAGGTGGAAATGCC DNA 2: GGCATTTCCACCTATTCC

>  <value_units>
nM

>  <test_value>
30

$$$$
>  <binder>
R3-18-2T (dsDNA) DNA 1: GTAATAGGTGGAAAAGCC DNA 2: GGCTTTTCCACCTATTAC

>  <value_units>
nM

>  <test_value>
187

$$$$
>  <binder>
R3-18-3T (dsDNA) DNA 1: GGTATAGGTGGAAAAGCC DNA 2: GGCTTTTCCACCTATACC

>  <value_units>
nM

>  <test_value>
123

$$$$
>  <binder>
R3-18-12G (dsDNA) DNA 1: GGAATAGGTGGGAAAGCC DNA 2: GGCTTTCCCACCTATTCC

>  <value_units>
nM

>  <test_value>
203

$$$$
>  <binder>
R1-18 (dsDNA) DNA 1: TGGCTATCCAGTAAAGTA DNA 2: TACTTTACTGGATAGCCA

>  <value_units>
nM

>  <test_value>
950

$$$$
